biological target: UniProt Q9BYF1; test: SPR analysis of affinity to ACE2 recombinant protein; format: binding; settings: SPR fit quality
Sequence (Q9BYF1 18-740): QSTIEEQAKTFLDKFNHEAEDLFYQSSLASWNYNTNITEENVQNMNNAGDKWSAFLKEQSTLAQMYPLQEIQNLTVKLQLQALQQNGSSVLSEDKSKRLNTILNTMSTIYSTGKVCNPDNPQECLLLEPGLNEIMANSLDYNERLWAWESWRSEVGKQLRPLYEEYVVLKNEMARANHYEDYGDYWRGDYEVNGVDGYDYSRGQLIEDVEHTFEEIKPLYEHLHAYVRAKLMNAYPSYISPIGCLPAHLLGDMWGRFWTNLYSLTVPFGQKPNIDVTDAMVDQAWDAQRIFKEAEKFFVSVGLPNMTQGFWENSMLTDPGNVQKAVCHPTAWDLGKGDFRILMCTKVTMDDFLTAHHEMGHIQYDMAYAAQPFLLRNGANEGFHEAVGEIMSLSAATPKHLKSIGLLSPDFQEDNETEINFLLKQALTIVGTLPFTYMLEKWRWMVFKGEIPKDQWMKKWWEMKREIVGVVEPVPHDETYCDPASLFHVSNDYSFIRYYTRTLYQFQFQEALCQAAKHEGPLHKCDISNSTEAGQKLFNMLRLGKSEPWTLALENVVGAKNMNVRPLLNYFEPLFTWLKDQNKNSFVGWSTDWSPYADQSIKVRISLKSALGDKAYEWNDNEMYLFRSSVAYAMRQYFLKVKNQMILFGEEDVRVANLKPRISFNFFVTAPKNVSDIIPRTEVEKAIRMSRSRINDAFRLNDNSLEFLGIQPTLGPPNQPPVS

[
  {
    "smiles.string": "N#C[C@H](O[C@@H]1O[C@H](CO[C@@H]2O[C@H](CO)[C@@H](O)[C@H](O)[C@H]2O)[C@@H](O)[C@H](O)[C@H]1O)c1ccccc1",
    "χ^2": 0.462
  },
  {
    "smiles.string": "O=c1c(O)c(-c2ccc(O)c(O)c2)oc2cc(O)cc(O)c12",
    "χ^2": 1.580
  },
  {
    "smiles.string": "COc1cc(O)c2c(c1)C(=O)c1cc(C)cc(O)c1C2=O",
    "χ^2": 1.630
  },
  {
    "smiles.string": "O=C(O)c1cc(O)c2c(c1)C(=O)c1cccc(O)c1C2=O",
    "χ^2": 0.669
  }
]
